The following molecules each carry a recorded IC50 for Factor D (Homo sapiens (Human)).

NCc1cccc(-c2cc(OCc3ccncc3)c3occ(COc4ccccc4CC(=O)O)c3c2)c1 [Compound 166f] | < 1 µM
NCc1cccc(-c2cc(Oc3ccccc3)c3occ(COc4ccccc4CC(=O)O)c3c2)c1 [Compound 194f] | < 1 µM
CC(C)(C)OC(=O)c1oc2ccc(-c3cccc(CN)c3)cc2c1COc1ccccc1CC(=O)O [Compound 86b] | < 1 µM
NCc1cccc(-c2cc(OCc3ccccn3)c3occ(COc4ccccc4CC(=O)O)c3c2)c1 [Compound 195f] | < 1 µM
CC(C)n1nc(COc2ccccc2CC(=O)O)c2cc(-c3ccnc(CN)c3F)ccc21 [Compound 271c] | < 1 µM

Consider the record given below.
# IC50 measured on Factor D (Homo sapiens (Human)) for item CCOC(=O)Nc1cc(-c2cccc(CN)c2)cc2c(COc3ccccc3CC(=O)O)c(C(=O)O)oc12 [Compound 102c] = < 1 µM

* * *

Notes on IC50 obtained with Factor D (Homo sapiens (Human)).

Below: 7 compounds and their reported IC50.
NCc1cccc(-c2ccc3oc(C(N)=O)c(COc4ccccc4CC(=O)O)c3c2)c1 [Compound 103c] | < 1 µM
NCc1nccc(-c2cc3c(COc4ccccc4CC(=O)O)coc3c3ccoc23)c1F [Compound 289d] | < 1 µM
NCc1cccc(-c2cc(N)c3oc(C(=O)O)c(COc4ccccc4CC(=O)O)c3c2)c1 [Compound 87c] | < 1 µM
CCCCC(C(=O)O)c1ccccc1OCc1nn(C(C)C)c2ccc(-c3cccc(CN)c3)cc12 (centres unmarked) [Compound 312f] | 1 to 10 µM
COc1cccc(CC(=O)O)c1OCc1coc2ccc(-c3cccc(CN)c3)cc12 [Compound 104e] | < 1 µM
NCc1cccc(-c2cccc3c(COc4ccccc4CC(=O)O)coc23)c1 [Compound 36e] | > 10 µM
COc1ccc(CC(=O)O)c(OCc2coc3c(NCC(C)C)cc(-c4cccc(CN)c4)cc23)c1 [Compound 279c] | < 1 µM

Okay, next one:
The compound identified as NCc1cccc(-c2ccc3c(c2)c(COc2ccccc2CC(=O)O)nn3C2CCCCC2)c1 [Compound 259c] registered its IC50 at < 1 µM

* * *

# Target Or System: Factor D (Homo sapiens (Human), UniProt P00746)
# Sequence (P00746 26-253): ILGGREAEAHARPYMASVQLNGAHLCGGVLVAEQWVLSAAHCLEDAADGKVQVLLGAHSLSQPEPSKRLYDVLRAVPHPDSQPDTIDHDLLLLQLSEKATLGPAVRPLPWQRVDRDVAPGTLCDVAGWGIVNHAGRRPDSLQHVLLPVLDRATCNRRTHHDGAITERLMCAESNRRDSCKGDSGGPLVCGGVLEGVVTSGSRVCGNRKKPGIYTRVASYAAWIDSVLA
Assay Metric: IC50

Worked set:
NCc1cccc(-c2cccc3cc(COc4ccccc4CCC(=O)O)oc23)c1 [Compound 35c] | > 10000 nM
Cn1nc(NC(=O)c2ccccc2CC(=O)O)c2cc(-c3cccc(CN)c3)ccc21 [Compound 74d] | < 1000 nM
CC(C)n1nc(COc2ccccc2CC(=O)O)c2cc(-c3cc(CN)cc(C4CCOCC4)c3)ccc21 [Compound 332e] | > 10000 nM
COc1ccc(CC(=O)O)c(OCc2c(F)oc3ccc(-c4cccc(CN)c4)cc23)c1 [Compound 172f] | < 1000 nM
NCc1cccc(-c2cc(NCc3cccnc3)c3occ(COc4ccccc4CC(=O)O)c3c2)c1 [Compound 187d] | < 1000 nM

NCc1cccc(-c2cccc3cc(COc4ccccc4CC(=O)O)ccc23)c1 [Compound 41d] has a reported IC50 of > 10000 nM

Consider NCc1cccc(-c2cc(C3CC3)c3occ(COc4ccccc4CC(=O)O)c3c2)c1 [Compound 120c] . Its measured IC50 is < 1000 nM

Looking up CCc1oc2ccc(-c3cccc(CN)c3)cc2c1COc1ccccc1CC(=O)O [Compound 226c] , I see its IC50 listed as < 1000 nM

Recorded result, COc1ccc(CC(=O)O)c(OCc2nn(C)c3ccc(-c4cccc(CN)c4F)cc23)c1 [Compound 309b] , IC50: < 1000 nM

IC50 recorded for this molecule, NCc1cccc(-c2cc(-c3ccc(F)cc3)c3occ(COc4ccccc4CC(=O)O)c3c2)c1 [Compound 221c] , is < 1000 nM

Entry under test: CC(C)(C)OC(=O)N1CCN(Cc2cc(-c3cccc(CN)c3)cc3c(COc4ccccc4CC(=O)O)coc23)CC1 [Compound 121f] . Its IC50 was < 1000 nM

Reported IC50 of N#Cc1ccc(CC(=O)O)c(OCc2coc3ccc(-c4cccc(CN)c4)cc23)c1 [Compound 57d] : < 1000 nM

The value of IC50 measured for the molecule NCc1cccc(-c2ccc3[nH]nc(C(=O)Nc4ccccc4CC(=O)O)c3c2)c1 [Compound 78e] turned out to be < 1000 nM
